# IC50 per record follows
Tested on: LNCaP (prostate)
Test: Cytotoxicity against cultured human cancer cells (SRB)
Format: cell-based
Details: Homo sapiens, LNCaP, 72 h; three days incubation, SRB; read-out: ED50 LNCaP

{"molecule": "C=C(C)[C@@H]1CC[C@]2(C(=O)O)CC[C@]3(C)[C@H](CC[C@@H]4[C@@]5(C)CC[C@H](O)C(C)(C)[C@@H]5CC[C@]43C)[C@@H]12 [Compound 10, 3β-hydroxy-lup-20(29)-ene-28-oic acid]", "system": "LNCaP (prostate)", "op": ">", "IC50 (µg/mL)": 20}
{"molecule": "COC(=O)C[C@](O)(CCCC(C)(C)O)C(=O)O[C@@H]1C(OC)=C[C@]23CCCN2CCc2cc4c(cc2[C@H]13)OCO4", "system": "LNCaP (prostate)", "op": "=", "IC50 (µg/mL)": 0.03}
{"molecule": "Cc1c2ccncc2c(C)c2c1[nH]c1ccccc12", "system": "LNCaP (prostate)", "op": "=", "IC50 (µg/mL)": 0.8}
{"molecule": "CC(=O)O[C@H]1C(=O)[C@@]2(C)[C@H]([C@H](OC(=O)c3ccccc3)[C@]3(O)C[C@H](OC(=O)[C@H](O)[C@@H](NC(=O)c4ccccc4)c4ccccc4)C(C)=C1C3(C)C)[C@]1(OC(C)=O)CO[C@@H]1C[C@@H]2O", "system": "LNCaP (prostate)", "op": "=", "IC50 (µg/mL)": 0.02}
{"molecule": "CC[C@]1(O)C[C@@H]2CN(CCc3c([nH]c4ccccc34)[C@@](C(=O)OC)(c3cc4c(cc3OC)N(C)[C@H]3[C@@](O)(C(=O)OC)[C@H](OC(C)=O)[C@]5(CC)C=CCN6CC[C@]43[C@@H]65)C2)C1", "system": "LNCaP (prostate)", "op": "=", "IC50 (µg/mL)": 0.1}
{"molecule": "CC[C@]1(O)C[C@H]2CN(CCc3c([nH]c4ccccc34)[C@@](C(=O)OC)(c3cc4c(cc3OC)N(C=O)[C@H]3[C@@](O)(C(=O)OC)[C@H](OC(C)=O)[C@]5(CC)C=CCN6CC[C@]43[C@@H]65)C2)C1", "system": "LNCaP (prostate)", "op": "=", "IC50 (µg/mL)": 0.1}
